# Tested on: 287954-098-R-J1 tumor spheroid viability
# testName: Anticancer human tumor 287954-098-R-J1 patient-derived Ewing sarcoma cell line growth inhibition
# conditionInfo: second compound 0.03 µM; first compound 0.1 µM; hits give low values; spheroids with HUVEC and MSC
Quick reference: viability, T/C of the listed items.
Give just the number in %; leave the unit off.

Previously resolved entries follow.
molecule: CC1COCCN1c1cc(-c2ccnn2C)c2ccnc(-c3ccn[nH]3)c2n1 (stereo unspecified) + CC[C@@]1(O)C(=O)OCc2c1cc1n(c2=O)Cc2cc3c(CN(C)C)c(O)ccc3nc2-1
unitLabel: %
viability, T/C: 1.36

molecule: CC(C)n1c(=O)n(C)c2cnc3cc(F)c(-c4ccc(OCCCN5CCCCC5)nc4)cc3c21 + CC[C@@]1(O)C(=O)OCc2c1cc1n(c2=O)Cc2cc3c(CN(C)C)c(O)ccc3nc2-1
unitLabel: %
viability, T/C: 1.36

molecule: COc1cc(C)[nH]c(=O)c1CN1CCc2c(Cl)cc(C(OC)C3COC3)c(Cl)c2C1=O (stereo unspecified) + CC[C@@]1(O)C(=O)OCc2c1cc1n(c2=O)Cc2cc3c(CN(C)C)c(O)ccc3nc2-1
unitLabel: %
viability, T/C: 36.6

Dear colleague, I am looking for the recorded viability, T/C of the following molecule: Cc1cc(C)c(CNC(=O)c2cc(-c3ccc(CN4CCOCC4)cc3)cc3c2cnn3C2CCCC2)c(=O)[nH]1 + CC[C@@]1(O)C(=O)OCc2c1cc1n(c2=O)Cc2cc3c(CN(C)C)c(O)ccc3nc2-1
42.9

Dear colleague, I am looking for the recorded viability, T/C of the following molecule: [2H]c1nc(C)nc([2H])c1-c1cc(NC[C@@H](C)c2cccc3c(C(=O)NC)ccnc23)ncn1 + CC[C@@]1(O)C(=O)OCc2c1cc1n(c2=O)Cc2cc3c(CN(C)C)c(O)ccc3nc2-1
31.6

Dear colleague, I am looking for the recorded viability, T/C of the following molecule: COc1ccc([C@@H](O)c2cc(-c3ncnc4cc(N5CCOCC5)ccc34)c(F)cc2Cl)nn1 + CC[C@@]1(O)C(=O)OCc2c1cc1n(c2=O)Cc2cc3c(CN(C)C)c(O)ccc3nc2-1
24.2

###

# System: 287954-098-R-J1 tumor spheroid viability
# testName: Anticancer human tumor 287954-098-R-J1 cell line growth inhibition; active = viability on the fitted dose curve at most 10% of control; inactive = the rest;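 also: luminescent signal taken as surrogate of viable cell content; spheroids exposed to compound for 7 days before viability readout; 100% = DMSO vehicle control viability and lower means growth inhibition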
# conditionInfo: second compound 10 µM; first compound 10 µM; spheroids with HUVEC and MSC
Respond using exactly one of the listed classes: 1.0 for active, 0.0 for inactive

Some solved entries appear below for comparison.
compound: Cc1cc(C)c(CNC(=O)c2cc(-c3ccc(CN4CCOCC4)cc3)cc3c2cnn3C2CCCC2)c(=O)[nH]1 + Cn1nnc2c(C(N)=O)ncn2c1=O
systemUnderTest: 287954-098-R-J1 tumor spheroid viability
classAssignment: 0.0
//
compound: CC1COCCN1c1cc(-c2ccnn2C)c2ccnc(-c3ccn[nH]3)c2n1 (stereo unspecified) + Cn1nnc2c(C(N)=O)ncn2c1=O
systemUnderTest: 287954-098-R-J1 tumor spheroid viability
classAssignment: 1.0
//
compound: COc1ccc([C@@H](O)c2cc(-c3ncnc4cc(N5CCOCC5)ccc34)c(F)cc2Cl)nn1 + Cn1nnc2c(C(N)=O)ncn2c1=O
systemUnderTest: 287954-098-R-J1 tumor spheroid viability
classAssignment: 0.0
//
compound: [2H]c1nc(C)nc([2H])c1-c1cc(NC[C@@H](C)c2cccc3c(C(=O)NC)ccnc23)ncn1 + Cn1nnc2c(C(N)=O)ncn2c1=O
systemUnderTest: 287954-098-R-J1 tumor spheroid viability
classAssignment: 0.0
//
compound: CC(C)n1c(=O)n(C)c2cnc3cc(F)c(-c4ccc(OCCCN5CCCCC5)nc4)cc3c21 + Cn1nnc2c(C(N)=O)ncn2c1=O
systemUnderTest: 287954-098-R-J1 tumor spheroid viability
classAssignment: 0.0

Consider now this further compound.
Hi, sorry to bother you, what did the test record for COc1cc(C)[nH]c(=O)c1CN1CCc2c(Cl)cc(C(OC)C3COC3)c(Cl)c2C1=O (stereo unspecified) + Cn1nnc2c(C(N)=O)ncn2c1=O ?
0.0
